System: RAW-Dual (murine macrophage reporter line)
experiment-summary: NF-kB reporter (SEAP) activity fold change vs agonist alone; higher = enhanced NF-kB activity
condition-details: modulator concentration 10 µM; agonist: CpG ODN 1826 0.5 ug/mL
Exercise: state measured NF-kB reporter for each of the molecules provided.
One number for each entry.

// batch mode: one NF-kB reporter value per listed entry
1. CCC1(CC)Cc2ccccc2C(CC(=O)N2CCOCC2)=N1.O=S(=O)(O)O
2. COC(=O)C(CCSC)NC(=O)c1cc(OC)c(OC)c(OC)c1 (centres undefined)
3. CS(=O)(=O)c1ccc(C2=C(c3ccccc3)C(=O)OC2)cc1
4. O=C(O)c1coc(CNC(=O)c2cocc2C(=O)O)c1
5. CC(=O)Oc1ccc2c(c1)c(C(C)=O)c(C)n2C
6. CC(C)(CO)NC(=O)C(c1ccccc1)c1ccccc1
7. CC1Cc2ccccc2N1C(=O)C1CCCN1S(=O)(=O)c1ccc(Cl)cc1 (centres undefined)

Response line:
0.627
1.08
0.962
1.04
0.859
1.24
0.835

// input: 3 molecules below; output: NF-kB reporter for each
1. CCN(CCCc1ccccc1)CCCc1ccccc1.O=C(O)CC(O)(CC(=O)O)C(=O)O
2. NC12CC3CC(CC(C3)C1)C2
3. Cc1ccc(CCNc2ccccc2C)cn1

Response line:
1. 1.32
2. 1.19
3. 1.05
